assay: qHTS of pediatric cancer cell lines to identify multiple opportunities for drug repurposing: Primary screen for Rh18 cells (AID 1347102); details: Rh18 rhabdomyosarcoma viability, CellTiter-Glo luminescence, 48 h; series mostly up to 46 µM; note: nearly all actives have a fitted effect of over 65% in size
Inconclusive results are not listed. Activity calls are given as the source filed them. Calls come from the whole dose curve; as a rule, active = well fitted cell-killing curve with a large enough effect; inconclusive = small, poorly fitted or top-dose-only effect; inactive = flat fitted curve, though single readings scatter.
Labels: active, inactive

* N#CNC(=NCCCCCCOc1ccc(Cl)cc1)Nc1ccncc1 | active
* C=C(C)[C@@H]1CC[C@]2(C)CC[C@]3(C)[C@H](CC[C@@H]4[C@@]5(C)CC[C@H](O)C(C)(C)[C@H]5CC[C@]43C)[C@@H]12 | inactive
* CC(C=CC=C(C)C=CC1=C(C)CCCC1(C)C)=CC=CC=C(C)C=CC=C(C)C=CC1=C(C)CCCC1(C)C | inactive
* C=CC1=C(C(=O)O)N2C(=O)[C@@H](NC(=O)C(=NO)c3csc(N)n3)[C@H]2SC1 | inactive
* COc1cccc2c1C(=O)c1c(O)c3c(c(O)c1C2=O)C[C@@](O)(C(=O)CO)C[C@@H]3O[C@H]1C[C@H](N)[C@@H](O)[C@H](C)O1 | active
* CCOC(=O)C=C[C@H](C[C@@H]1CCNC1=O)NC(=O)[C@@H](CC(=O)[C@@H](NC(=O)c1cc(C)on1)C(C)C)Cc1ccc(F)cc1 | inactive
* C[C@H]1C[C@H]2[C@@H]3CCC4=CC(=O)C=C[C@]4(C)[C@@H]3C(=O)C[C@]2(C)[C@@]1(O)C(=O)CO | inactive
* C[C@H]1O[C@H](O[C@H]2[C@H](O)[C@@H](O)[C@@H](O[C@H]3[C@H](O)[C@@H](O)C(O)O[C@H]3CO)O[C@H]2CO)[C@H](O)[C@@H](O)[C@H]1N[C@H]1C=C(CO)[C@@H](O)[C@H](O)[C@@H]1O (stereo partly drawn) | inactive
* CC(=O)N1CCN(c2ccc(OCc3nn(C)c(C)c3-c3cccc4c(CCCOc5cccc6ccccc56)c(C(=O)O)n(Cc5cccnc5)c34)cc2)CC1 | active
* CC(C)NC[C@@H](C(=O)N1CCN(c2ncnc3c2[C@H](C)C[C@H]3O)CC1)c1ccc(Cl)cc1 | active
* FC(F)(F)c1ccc(Nc2nc3ccc(Oc4ccnc(-c5ncc(C(F)(F)F)[nH]5)c4)cc3[nH]2)cc1 | inactive
* O=C(C=CC=Cc1ccc2c(c1)OCO2)N1CCCCC1 | inactive
* COc1cc([C@@H]2c3cc4c(cc3[C@H](O)[C@H]3COC(=O)[C@@H]23)OCO4)cc(OC)c1OC | inactive
* O=C(O)[C@H](CC(=O)N1C[C@@H]2CCCC[C@H]2C1)Cc1ccccc1 | inactive
* COc1ccc(Nc2cc(-c3cnc(N)nc3)nc(N3CCOCC3)n2)cn1 | active
* C=CC(=O)N1CCc2ccc(-n3c(=O)ccc4cnc5ccc(-c6cnn(C)c6)cc5c43)cc21 | active
* CC(=O)[C@]1(O)Cc2c(O)c3c(c(O)c2[C@@H](O[C@H]2C[C@H](N)[C@@H](O)[C@H](C)O2)C1)C(=O)c1ccccc1C3=O | active
* O=C(c1ccc(F)cc1)N1CCC[C@H](c2nc(-c3ccc(F)cc3)no2)C1 | inactive
* COC(=O)C=CC(=O)OC | inactive
* COc1ccc(C(C)=O)c(O)c1 | inactive
* CC[C@@]1([C@@H]2O[C@@H]([C@H]3O[C@@](O)(CO)[C@H](C)C[C@H]3C)C[C@H]2C)CC[C@H]([C@]2(C)CC[C@]3(C[C@H](O)[C@@H](C)[C@@H]([C@@H](C)[C@@H](OC)[C@H](C)C(=O)O)O3)O2)O1 | inactive
* CN(C)CC(=O)N1CCC(c2ccc(NC(=O)c3ncc(C#N)[nH]3)c(C3=CCCCC3)c2)CC1 | active
* NC(=O)c1cccc(-c2cccc(OC(=O)NC3CCCCC3)c2)c1 | inactive
* COc1cccc2c1C(=O)c1c(O)c3c(c(O)c1C2=O)C[C@@](O)(C(=O)CO)C[C@@H]3O[C@H]1C[C@H](N)[C@H](OC2CCCCO2)[C@H](C)O1 (stereo partly drawn) | inactive
* CCCCCCCN(CC)CCCC(O)c1ccc(NS(C)(=O)=O)cc1 (stereo not drawn) | inactive
* CON=C(C(=O)N[C@@H]1C(=O)N2C(C(=O)O)=C(Cn3ccc(=N)n3CCO)CS[C@H]12)c1csc(N)n1 | inactive
* Cn1cc(CNCC2CCN(c3ncc(C(=O)NO)cn3)CC2)c2ccccc21 | active
* O=C1NC(O)CCN1[C@@H]1O[C@H](CO)[C@H](O)[C@H]1O (stereo partly drawn) | inactive
* C=CC(=O)Nc1cccc(Nc2nc(NC3CCC(N(C)C)CC3)nc3c2ncn3C(C)C)c1 (stereo not drawn) | active
* C[C@H]1COc2c(N3CCN(C)CC3)c(F)cc3c(=O)c(C(=O)O)cn1c23 | inactive
* CC(C)(C)[N+]([O-])=Cc1ccc(S(=O)(=O)O)cc1S(=O)(=O)O | inactive
* CC(C)(N)c1ccc(-c2nc3ccccc3nc2-c2ccccc2)cc1 | active
* COc1cc2c(cc1OC)[C@@H]1C(=O)c3ccc4c(c3O[C@@H]1CO2)C=CC(C)(C)O4 | inactive

Numbers sourced from PubChem BioAssay (NCATS).
